Biological target: His6-DDR2 (cytoplasmic domain of human DDR2) (Homo sapiens, UniProt Q16832)
Sequence (Q16832 422-855 limits assumed): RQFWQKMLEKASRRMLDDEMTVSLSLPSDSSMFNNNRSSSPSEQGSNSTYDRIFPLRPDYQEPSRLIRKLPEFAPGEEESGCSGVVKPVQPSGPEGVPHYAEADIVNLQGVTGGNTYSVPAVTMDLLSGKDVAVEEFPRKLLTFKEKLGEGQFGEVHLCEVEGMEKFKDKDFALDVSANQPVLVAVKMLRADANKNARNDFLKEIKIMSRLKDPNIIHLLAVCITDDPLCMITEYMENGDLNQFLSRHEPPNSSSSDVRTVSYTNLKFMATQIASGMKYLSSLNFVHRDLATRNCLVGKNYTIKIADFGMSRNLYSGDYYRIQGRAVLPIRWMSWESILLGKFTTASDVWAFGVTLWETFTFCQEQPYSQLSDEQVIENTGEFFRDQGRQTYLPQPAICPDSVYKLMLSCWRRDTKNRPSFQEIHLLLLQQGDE
endpoint-label: IC50 (nM)

structure-smiles-string | value-units | readout-number
COc1cc2nccc(Oc3ccc(NC(=O)Nc4ccc(F)cc4)c(F)c3)c2cc1C(N)=O | nM | 1.2
CCNC(=O)Nc1ccc(Oc2ccnc3cc(OC[C@H](O)CN4CCCC4)c(C(=O)NC)cc23)cc1Cl | nM | 0.4
N#Cc1cc2c(Oc3ccc(Cl)c(NC(=O)NC4CC4)c3)ccnc2cc1OC[C@H](O)CN1CCCC1 | nM | 20.8
CCNC(=O)Nc1ccc(Oc2ccnc3cc(OC)c(C(=O)NCC)cc23)cc1Cl | nM | 428
CN1CCC(C(=O)Nc2cc(Oc3ccc4c(ccn4C(=O)Nc4ccccc4)c3)ccn2)CC1 | nM | 0.24
COc1cc2nccc(Oc3ccc(NC(=O)Nc4cccc(C(N)=O)c4)cc3)c2cc1OC | nM | 1.3
CNC(=O)c1cc2c(Oc3ccc(NC(=O)NC4CC4)c(Cl)c3)ccnc2cc1OCCOC | nM | 0.4
COc1cc2nccc(Oc3ccc4c(ccn4C(=O)Nc4ccc(F)cc4)c3)c2cc1OC | nM | 1.9

Data origin: patent US20090203693A1
